The measurements presented in this section are drawn from ChEMBL document CHEMBL4823313.

assay: Observed MRT infinity in CD-1 mouse at 50 mg/kg, po by LC-MS/MS analysis; format: ADME, organism-based; details: in vivo
Quantity measured: MRT inf

Consider the following illustrative entries.
Chemical string | MRT inf
CC(C)C(=O)O[C@H]1[C@@H](O)[C@](C#N)(c2ccc3c(N)ncnn23)O[C@@H]1CO | 1.82 h
CC(C)C(=O)OC[C@H]1O[C@@](C#N)(c2ccc3c(N)ncnn23)[C@H](O)[C@@H]1O | 2.16 h

Okay, next one:
Reported MRT inf for CC(C)[C@H](N)C(=O)O[C@H]1[C@@H](O)[C@](C#N)(c2ccc3c(N)ncnn23)O[C@@H]1CO.Cl.Cl : what is it?
2.76 h

====

test: AUClast in CD-1 mouse at 25 mg/kg, iv by LC-MS/MS analysis; type: ADME, organism-based; set-up: route intravenous, time 0 - last, dose 25 mg/kg; settings: in vivo
Quantity measured: AUC(0-t) (ng·h/mL)
Give a bare numeral; the unit ng·h/mL is implied.

Chemical string | Recorded result
CC(C)[C@H](N)C(=O)O[C@H]1[C@@H](O)[C@](C#N)(c2ccc3c(N)ncnn23)O[C@@H]1CO.Cl.Cl | 5420

Reported AUC(0-t) for CC(C)C(=O)O[C@H]1[C@@H](O)[C@](C#N)(c2ccc3c(N)ncnn23)O[C@@H]1CO : what is it?
10200

Reported AUC(0-t) for CC(C)C(=O)OC[C@H]1O[C@@](C#N)(c2ccc3c(N)ncnn23)[C@H](O)[C@@H]1O : what is it?
7980

Reported AUC(0-t) for Br.CC(C)C(=O)OC[C@H]1O[C@@](C#N)(c2ccc3c(N)ncnn23)[C@H](OC(=O)C(C)C)[C@@H]1OC(=O)C(C)C : what is it?
3600

====

experiment: Half life in CD-1 mouse at 50 mg/kg, po by LC-MS/MS analysis; type: ADME, organism-based; conditions: in vivo
The reader will find reported half-life values listed item by item below.
Give a bare numeral; the unit h is implied.

Chemical string | Quantity measured | Measurement unit | Recorded result
CC(C)[C@H](N)C(=O)O[C@H]1[C@@H](O)[C@](C#N)(c2ccc3c(N)ncnn23)O[C@@H]1CO.Cl.Cl | half-life | h | 1.72

Reported half-life for CC(C)C(=O)O[C@H]1[C@@H](O)[C@](C#N)(c2ccc3c(N)ncnn23)O[C@@H]1CO : what is it?
1.11

Reported half-life for CC(C)C(=O)OC[C@H]1O[C@@](C#N)(c2ccc3c(N)ncnn23)[C@H](O)[C@@H]1O : what is it?
2.46

Reported half-life for Br.CC(C)C(=O)OC[C@H]1O[C@@](C#N)(c2ccc3c(N)ncnn23)[C@H](OC(=O)C(C)C)[C@@H]1OC(=O)C(C)C : what is it?
2.71

====

system: SARS-CoV-2; test: Antiviral activity against SARS-CoV-2 nCoV-2019BetaCoV/Wuhan/WIV04/ infected in African green monkey Vero E6 cells assessed as inhibition of viral replication at 5 uM when host cells were pretreated for 1 hr followed by viral infection then followed by removal of infected supernatant and subsequent culture addition with fresh compounds and measured after 24 hrs by qRT-PCR method relative to control; type: functional; conditions: Severe acute respiratory syndrome coronavirus 2, nCoV-2019BetaCoV/Wuhan/WIV04/, Vero C1008, time 25 hrs
The reader will find reported inhibition at 5 µM values listed item by item below.

Consider the following illustrative entries.
Chemical string | Recorded result
CC(C)[C@H](N)C(=O)O[C@H]1[C@@H](O)[C@](C#N)(c2ccc3c(N)ncnn23)O[C@@H]1CO.Cl.Cl | 99%
CC(C)C(=O)OC[C@H]1O[C@@](C#N)(c2ccc3c(N)ncnn23)[C@H](O)[C@@H]1OC(=O)C(C)C | 99%
N#C[C@@]1(c2cc(F)c3c(N)ncnn23)O[C@H](CO)[C@@H](O)[C@H]1O | 80%

Reported inhibition at 5 µM for OC[C@H]1O[C@@H](c2ccc3c(NO)ncnn23)[C@H](O)[C@@H]1O : what is it?
< 10%

====

experiment: Half life in CD-1 mouse at 25 mg/kg, iv by LC-MS/MS analysis; format: ADME, organism-based; details: CD-1, mouse, in vivo
Quantity measured: half-life (h)
Give a bare numeral; the unit h is implied.

Consider the following illustrative entries.
Molecule | Quantity measured | Measurement unit | Recorded result
CC(C)C(=O)OC[C@H]1O[C@@](C#N)(c2ccc3c(N)ncnn23)[C@H](O)[C@@H]1O [OBELDESIVIR] | half-life | h | 4.77
Br.CC(C)C(=O)OC[C@H]1O[C@@](C#N)(c2ccc3c(N)ncnn23)[C@H](OC(=O)C(C)C)[C@@H]1OC(=O)C(C)C | half-life | h | 2.48

Reported half-life for CC(C)C(=O)O[C@H]1[C@@H](O)[C@](C#N)(c2ccc3c(N)ncnn23)O[C@@H]1CO : what is it?
0.83
